Reference for the values: the MegaScale stability set (Tsuboyama et al. 2023)

B1: r11_951_TrROS_Hall (parent)
chain: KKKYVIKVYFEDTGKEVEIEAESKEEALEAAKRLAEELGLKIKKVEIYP

Variants of: B1
assay text: folding stability dG (cDNA display proteolysis); higher = more stable
cond: PBS, room temperature
parameter measured: folding stability dG (kcal/mol)
Answers are plain numbers, in kcal/mol.

variant key: I42H
display unit: kcal/mol
result value: 2.67
--
variant key: Y48R
display unit: kcal/mol
result value: 4.36
--
variant key: K44P
display unit: kcal/mol
result value: 2.69
--
variant key: K1Q
display unit: kcal/mol
result value: 4.6
--
variant key: V17S
display unit: kcal/mol
result value: 4.23

Each variant below has a reported value. Please supply its folding stability dG.
1. K32D
2. E46L
3. L34N

1: 4.21; 2: 4.38; 3: 3.66

Each variant below has a reported value. Please supply its folding stability dG.
1. I6Q
2. S23T

1. 1.59
2. 4.35

Each variant below has a reported value. Please supply its folding stability dG.
1. V45T
2. P49I
3. D12L
4. F10A
5. I42S
6. V5A

4.16
4.72
4.59
2.98
2.64
4.35
